Catalogue of pKd readings, one per entry.
Molecular target: T1, EsCas13d, nuclease-dead (Eubacterium siraeum, UniProt B0MS50, R295A;H300A;R849A;H854A)
T1 sequence: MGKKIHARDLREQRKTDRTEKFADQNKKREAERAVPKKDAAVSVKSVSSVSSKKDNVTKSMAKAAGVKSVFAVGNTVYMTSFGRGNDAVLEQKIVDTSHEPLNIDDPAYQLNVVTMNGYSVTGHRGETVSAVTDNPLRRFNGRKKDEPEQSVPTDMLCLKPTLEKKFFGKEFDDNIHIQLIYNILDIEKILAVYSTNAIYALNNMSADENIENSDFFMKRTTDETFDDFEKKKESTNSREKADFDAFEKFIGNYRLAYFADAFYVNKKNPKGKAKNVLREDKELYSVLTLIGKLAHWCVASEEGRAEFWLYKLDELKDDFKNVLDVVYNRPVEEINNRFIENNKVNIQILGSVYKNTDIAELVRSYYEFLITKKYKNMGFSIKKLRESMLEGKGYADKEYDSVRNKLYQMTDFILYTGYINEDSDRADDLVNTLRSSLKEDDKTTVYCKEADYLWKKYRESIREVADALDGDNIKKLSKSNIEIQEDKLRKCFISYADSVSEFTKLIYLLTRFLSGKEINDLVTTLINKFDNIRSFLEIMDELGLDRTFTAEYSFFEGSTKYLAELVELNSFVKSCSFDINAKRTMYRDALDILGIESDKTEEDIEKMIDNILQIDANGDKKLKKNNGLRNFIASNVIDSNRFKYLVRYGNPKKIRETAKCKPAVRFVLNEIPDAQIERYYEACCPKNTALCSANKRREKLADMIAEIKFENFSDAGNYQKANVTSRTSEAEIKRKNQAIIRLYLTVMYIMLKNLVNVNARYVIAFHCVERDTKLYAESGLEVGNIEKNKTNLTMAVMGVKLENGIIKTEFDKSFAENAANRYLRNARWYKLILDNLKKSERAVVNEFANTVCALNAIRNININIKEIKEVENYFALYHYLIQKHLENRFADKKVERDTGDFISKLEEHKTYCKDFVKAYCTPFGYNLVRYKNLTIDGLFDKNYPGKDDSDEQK
Assay: crRNA (strand 1, pre-loaded); Mg2+; 40 mM Tris-HCl pH 7.5, 150 mM NaCl, 6 mM MgCl2, 1 mM DTT, 0.1% Tween-20, 0.2 mg/ml BSA; 25 C; 10 min per concentration, then washed
Settings: tags: His6-TwinStrep-SUMO cleaved; N-terminal SNAP kept (SNAP-Surface 488); label: 3' end held by stalled T7 RNA polymerase
In plain terms, pKd is the concentration in mol/L turned into minus its base-10 logarithm.

Take a look at these entries with their results.
Which pKd value belongs to target 3 insG 3' of 9,insC 3' of 8 (mixed) RNA 1: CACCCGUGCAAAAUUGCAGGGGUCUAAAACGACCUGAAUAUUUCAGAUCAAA RNA 2: GGGAAUGGAUCCACAUCUACGAAUUCGUUUUUGAUCUGAAAUAGUCUCAGGUCUGCAGAUCGGAAGAGCACACGU ?
7.05

Which pKd is reported for this binder? target 3 C6A,U22G (mixed) RNA 1: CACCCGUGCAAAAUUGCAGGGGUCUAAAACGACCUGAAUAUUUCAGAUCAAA RNA 2: GGGAAUGGAUCCACAUCUACGAAUUCGUUGUUGAUCUGAAAUAUUAAGGUCUGCAGAUCGGAAGAGCACACGU
6.97

# get_value(readout='pKd', item= target 2 MT 5'PFS UCA 3'PFS UUC (mixed) RNA 1: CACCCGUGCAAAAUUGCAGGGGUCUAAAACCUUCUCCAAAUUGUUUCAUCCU RNA 2: GGGAAUGGAUCCACAUCUACGAAUUCUCAAGGAUGAAACAAUUUGGAGAAGUUCAGAUCGGAAGAGCACACGU )
7.99

Further cases:
What value of pKd has been recorded for this entry: target 1 G17C,C21A (mixed) RNA 1: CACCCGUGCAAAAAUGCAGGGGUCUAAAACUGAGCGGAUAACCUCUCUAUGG RNA 2: GGGAAUGGAUCCACAUCUACGAAUUCGUACAAUACAGAGGUUAUCCGCUCACCGAGAUCGGAAGAGCACACGU
7.33

Data request, read-out pKd, for target 1 insC 3' of 1,insC 3' of 1 (mixed) RNA 1: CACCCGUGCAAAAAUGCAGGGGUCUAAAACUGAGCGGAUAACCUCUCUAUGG RNA 2: GGGAAUGGAUCCACAUCUACGAAUUCGUACCAUAGAGAGGUUAUCCGCUCACCCCGAGAUCGGAAGAGCACACGU
7.95

Looking for the measured pKd of target 3 insC 3' of 18,insC 3' of 11 (mixed) RNA 1: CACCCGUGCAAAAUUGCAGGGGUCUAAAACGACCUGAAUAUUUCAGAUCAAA RNA 2: GGGAAUGGAUCCACAUCUACGAAUUCGUUUUUGACUCUGAAACUAUUCAGGUCUGCAGAUCGGAAGAGCACACGU , can you help?
7.43

Query: pKd; subject: target 1 A1C,G5A (mixed) RNA 1: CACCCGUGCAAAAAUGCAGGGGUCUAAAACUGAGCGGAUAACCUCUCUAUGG RNA 2: GGGAAUGGAUCCACAUCUACGAAUUCGUACCAUAGAGAGGUUAUCCACUCCCCGAGAUCGGAAGAGCACACGU
7.59

Please give the measured pKd for this binder: target 1 MT 5'PFS GUG 3'PFS AAA (mixed) RNA 1: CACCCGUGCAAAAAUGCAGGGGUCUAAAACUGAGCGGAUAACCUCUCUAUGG RNA 2: GGGAAUGGAUCCACAUCUACGAAUUCGUGCCAUAGAGAGGUUAUCCGCUCAAAAAGAUCGGAAGAGCACACGU
7.52

Need pKd of target 1 G12C,G13A (mixed) RNA 1: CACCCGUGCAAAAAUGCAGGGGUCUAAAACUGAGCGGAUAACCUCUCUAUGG RNA 2: GGGAAUGGAUCCACAUCUACGAAUUCGUACCAUAGAGAACUUAUCCGCUCACCGAGAUCGGAAGAGCACACGU , thanks.
8.02
